Below: a set of entries, each annotated with reported melting point.
Readout Type: melting point

[[record]]
compound = "Nc1ccc(N2C(=O)c3ccccc3C2=O)cc1S(F)(F)(F)(F)F"
readout_type = "melting point"
experimental_result = "176 to 178 °C"

[[record]]
compound = "COC(=O)C(Cc1ccccc1)NC(=O)c1cc2cc(Cl)ccc2[nH]1 (stereo not given)"
readout_type = "melting point"
experimental_result = "156 to 157 °C"

[[record]]
compound = "O=C(COc1ccc2ccccc2c1)NCc1ccc(C(=O)O)cc1"
readout_type = "melting point"
experimental_result = "188 to 189 °C"

[[record]]
compound = "CC1CC2=C(N3CN(C)N=C3C(c3ccccc3Cl)=NC2)S1=O (stereo not given)"
readout_type = "melting point"
experimental_result = "199 to 200 °C"

[[record]]
compound = "Cc1ccccc1-c1ccc(C(=O)N2Cc3ccc(C(=O)NCCCc4ccccc4)n3Cc3ccccc32)cc1C"
readout_type = "melting point"
experimental_result = "183 to 184 °C"


###

Below: a set of entries, each annotated with reported melting point.
Readout Type: melting point

[[record]]
compound = "O=C(O)COc1ccc2c(-c3ccccc3F)csc2c1Cl"
experimental_result = "163 to 164 °C"

[[record]]
compound = "CS(=O)(=O)Nc1cccc2c1CCC[C@H]2c1c[nH]cn1"
experimental_result = "118 to 123 °C"

[[record]]
compound = "CON(c1ccc([N+](=O)[O-])cc1C#N)S(=O)(=O)c1ccc(Cl)s1"
experimental_result = "144 to 146 °C"

[[record]]
compound = "O=C(Nc1cccc2c(=O)cc(-c3nnn[nH]3)oc12)c1ccc2c(c1)CC(COCc1ccccc1)O2 (stereo not given)"
experimental_result = "200 to 202 °C"

[[record]]
compound = "CC1(C)CCC(C)(C)c2cc(-c3cc(-c4ccc(C(=O)O)cc4)ccc3OCCCCCCCCCO)ccc21"
experimental_result = "147 to 150 °C"

[[record]]
compound = "CNc1nc(Nc2ccc(Cl)c(Cl)c2)ncc1NC(=O)C(C)C"
experimental_result = "284 to 286 °C"

[[record]]
compound = "O=c1cc(C=Cc2ccc(Cl)cc2)oc(-c2ccccc2)c1"
experimental_result = "169 to 171 °C"

[[record]]
compound = "Cc1cc(C#N)sc1Br"
experimental_result = "40 to 42 °C"

[[record]]
compound = "CCOC(=O)Cc1ccc(NC(=O)C(COc2ccc(Cl)cc2)NS(=O)(=O)c2ccc(I)cc2)cc1 (racemic)"
experimental_result = "162 to 163 °C"

[[record]]
compound = "OCCSSc1nc2ccccc2s1"
experimental_result = "65 to 68 °C"


###

Below: a set of entries, each annotated with reported melting point.
Readout Type: melting point

[[record]]
compound = "CCOC(=O)c1[nH]c(CC)nc1C(C)(C)O"
readout_type = "melting point"
experimental_result = "181 to 184 °C"

[[record]]
compound = "COCCCn1c(C=O)c(Br)c2c3c(c(-c4ccccc4Cl)cc21)C(=O)NC3=O"
readout_type = "melting point"
experimental_result = "206 to 207 °C"

[[record]]
compound = "CCOC(=O)c1cnc2c(OCC)csc2c1O"
readout_type = "melting point"
experimental_result = "223 to 224 °C"

[[record]]
compound = "O=C(CCCc1ccccc1)N[C@H]1C[C@H](C(=O)O)Nc2cc(Cl)cc(Cl)c21 (relative stereo)"
readout_type = "melting point"
experimental_result = "189 to 191 °C"

[[record]]
compound = "CCN(CC)CCSCC(=O)c1ccc2[nH]c3ncc(Cl)cc3c2c1"
readout_type = "melting point"
experimental_result = "137 to 138 °C"

[[record]]
compound = "Clc1nc(N2CCOCC2)c2ccccc2n1"
readout_type = "melting point"
experimental_result = "103 to 105 °C"

[[record]]
compound = "CCCCCCCNC(=O)Nc1ccccc1C(=O)N1CCN(c2ccccc2OC)CC1"
readout_type = "melting point"
experimental_result = "209 to 212 °C"

[[record]]
compound = "COc1ccc(C(=O)C=Cc2ccc(C(C)(C)C)cc2)cc1"
readout_type = "melting point"
experimental_result = "114 to 116 °C"

[[record]]
compound = "Cc1cc(-n2ccc(OCc3ccccc3)cc2=O)sc1C(=O)NCc1ccc(F)cc1"
readout_type = "melting point"
experimental_result = "175 to 177 °C"

[[record]]
compound = "O=c1ccc(-c2ccc(F)cc2)nn1CCF"
readout_type = "melting point"
experimental_result = "145 °C"

[[record]]
compound = "CN(C(=O)OC(C)(C)C)c1sc(-c2cncc(F)c2)nc1I"
readout_type = "melting point"
experimental_result = "70 to 71 °C"

[[record]]
compound = "CN1Cc2c(/C=C\\Cl)ncn2-c2ccccc2C1=O"
readout_type = "melting point"
experimental_result = "197 to 199 °C"

[[record]]
compound = "CS(=O)(=O)N(Cc1cccnc1)c1ccc(O)cc1"
readout_type = "melting point"
experimental_result = "208 to 210 °C"

[[record]]
compound = "CC1(Cn2nc(-c3ccc(Br)cc3)oc2=O)Cn2cc([N+](=O)[O-])nc2O1 (stereo unspecified)"
readout_type = "melting point"
experimental_result = "231 to 233 °C"

[[record]]
compound = "CC(C)(C(=O)O)c1cn2nc(Cl)ccc2n1"
readout_type = "melting point"
experimental_result = "159 to 161 °C"

[[record]]
compound = "CCCN(CCC)C(=O)Cc1ccc(O)c2[nH]ncc12"
readout_type = "melting point"
experimental_result = "164 to 165 °C"

[[record]]
compound = "O=C1CC(c2cccc(-n3ccnc3)c2)=Nc2ccc(-c3ccc(OCc4ccccc4)nc3)cc2N1"
readout_type = "melting point"
experimental_result = "225 to 231 °C"

[[record]]
compound = "CC=Cc1cnn(C)c1S(=O)(=O)NC(=O)Nc1nc(OC)cc(OC)n1"
readout_type = "melting point"
experimental_result = "154 to 156 °C"

[[record]]
compound = "COc1cc(N2CCN([C@H]3CC[C@H](c4cn(C)c5ccc(C#N)cc54)CC3)CC2)c2nccc(C)c2c1"
readout_type = "melting point"
experimental_result = "230 to 232 °C"

[[record]]
compound = "COC(=O)c1[nH]c2c(C)ccc(C)c2c1[N+](=O)[O-]"
readout_type = "melting point"
experimental_result = "193 to 194 °C"

[[record]]
compound = "COc1cc2c(Nc3cccc(Br)c3)c(C#N)cnc2c(OC)c1OC"
readout_type = "melting point"
experimental_result = "211 to 213 °C"

[[record]]
compound = "O=C1c2c(c(=O)n3nc(-c4ccccc4)cc3n2Cc2ccccc2)CCN1C1CCCCC1"
readout_type = "melting point"
experimental_result = "247 to 248 °C"

[[record]]
compound = "O=C(O)C[S@](=O)C(c1ccccc1)c1ccccc1"
readout_type = "melting point"
experimental_result = "118 to 120 °C"

[[record]]
compound = "C=CC1OC(=O)c2c(Oc3nc(OC)cc(OC)n3)cccc21 (stereo unspecified)"
readout_type = "melting point"
experimental_result = "94 to 97 °C"

[[record]]
compound = "COc1cccc(Cc2snnc2-c2ccco2)c1"
readout_type = "melting point"
experimental_result = "80.6 to 82 °C"

[[record]]
compound = "CC1(C)C2CC[C@@]1(N1CCCCC1)C(=O)C2"
readout_type = "melting point"
experimental_result = "78 to 79 °C"

[[record]]
compound = "CNC(=S)NCCN1CCCCC1"
readout_type = "melting point"
experimental_result = "166 °C"

[[record]]
compound = "CCCCCC(O)C=CC1C(O)CC(=O)C1CCCCCCC(=O)OCCSS(C)(=O)=O (stereo unspecified)"
readout_type = "melting point"
experimental_result = "56 to 58 °C"

[[record]]
compound = "CN1CCN(c2ccc3c(c2)NC(=O)C(C)(c2ccc([N+](=O)[O-])cc2)C3=O)CC1 (stereo unspecified)"
readout_type = "melting point"
experimental_result = "150 to 151 °C"

[[record]]
compound = "COc1cc(C(=O)NS(=O)(=O)c2ccccc2)ccc1CN1CCOc2ccc(NC(=O)OC3CCCC3)cc21"
readout_type = "melting point"
experimental_result = "186 to 187 °C"

[[record]]
compound = "CCCN(CCC)CC1CCCCN1CCNC(=O)N1c2ccccc2NC(=O)c2c1ccn2C (stereo unspecified)"
readout_type = "melting point"
experimental_result = "153 to 155 °C"

[[record]]
compound = "COC(=O)c1cc(N)c(NS(C)(=O)=O)c(CO)c1"
readout_type = "melting point"
experimental_result = "150 to 155 °C"

[[record]]
compound = "N#Cc1ccc(OCCCOc2ccc(-c3cc4ccc(C#N)cc4o3)cc2)cc1"
readout_type = "melting point"
experimental_result = "208 to 210 °C"

[[record]]
compound = "CSc1ccc(NC(=O)C(C#N)C(=O)c2cccn2C)cc1 (stereo unspecified)"
readout_type = "melting point"
experimental_result = "167 to 168 °C"

[[record]]
compound = "Cc1cc(C(N)=O)cc([N+](=O)[O-])n1"
readout_type = "melting point"
experimental_result = "227 to 228 °C"

[[record]]
compound = "CCCCc1nc2cccc(C(=O)O)c2n1Cc1ccn2c(C(=O)O)c(-c3ccccc3)nc2c1"
readout_type = "melting point"
experimental_result = "202 to 204 °C"

[[record]]
compound = "CN1CCN(c2ccc(C(=O)NC3(C(=O)NCC#N)CCCCC3)cc2)CC1"
readout_type = "melting point"
experimental_result = "218 to 220 °C"

[[record]]
compound = "CSc1nnc(-c2ccc(Cl)cc2)o1"
readout_type = "melting point"
experimental_result = "121 to 123 °C"

[[record]]
compound = "Cc1cc(C)c(NC(=O)N(O)C(C)C)cc1C"
readout_type = "melting point"
experimental_result = "176 to 177 °C"

[[record]]
compound = "Cc1ccc(-c2cncc(CN3CC=C(c4ccccc4)CC3)c2)cc1"
readout_type = "melting point"
experimental_result = "133 to 135 °C"

[[record]]
compound = "CS(=O)(=O)Cc1cc(N)ccc1N1C(=O)c2ccc(Cl)cc2C1=O"
readout_type = "melting point"
experimental_result = "228 to 230 °C"

